Recorded TGI for the following molecules
Tested on: OVCAR-8 ovarian
Experiment: NCI tumour cell line growth inhibition, 48 h
measurement.name: TGI

* N=C(N)SCc1c2ccccc2c(CSC(=N)N)c2ccccc12 | 50.4 µM
* CCOC(=O)CCSc1nc2ccc(I)cc2c(=O)n1Cc1ccccc1 | > 100 µM
* C[C@]12CC[C@@H]3c4cc(OC(F)F)c(OS(N)(=O)=O)cc4CC[C@H]3[C@@H]1CC[C@@H]2OS(N)(=O)=O | > 59 µM
* CCOC(=O)C1(C(=O)OCC)C[C@@H](C)[C@@H](O)C1 | > 100 µM
* Clc1ccc(Nc2ccnc(N3CCN(c4ccnc5cc(Cl)ccc45)CC3)n2)cc1 | 21.3 µM
* O=c1[nH]nc(Cc2ccccc2)n1CCCl | > 100 µM
* COCCNc1ccc2c3c(cccc13)C(=O)N(CCN(C)C)C2=O | > 25 µM
* O=C(CCCN1CCC2(CC1)CC(=O)N(N1CCOCC1)C2=O)c1ccc(F)cc1 | > 100 µM
* O=C(SC1=NCCN1)c1cccc2ccccc12 | > 100 µM
* CCSc1cc2c(cc1O)CC[C@@H]1[C@@H]2CC[C@]2(C)[C@@H](O)CC[C@@H]12 | 38.5 µM
* O=C(/C=C/c1ccc(C(F)(F)F)cc1)c1c([O-])on[n+]1-c1ccccc1 | 5.38 µM
* CC(=O)OCC1OC(n2c3c(cc(C#N)c2=S)CCC3)C(OC(C)=O)C(OC(C)=O)C1OC(C)=O (stereo unspecified) | > 100 µM
* COc1cc(C2c3cc4c(cc3[C@H](NS(C)(=O)=O)C3COC(=O)[C@H]23)OCO4)cc(OC)c1OC (stereo partly specified) | > 100 µM
* CCCCCCn1c(-c2ccc(C(=O)O/N=C(\N)c3ccc4ccccc4c3)cc2)nc(-c2ccccc2)c1-c1ccccc1 | > 100 µM
* CC(N)(/C=C/c1ccccc1)C(=O)O (stereo unspecified) | > 100 µM
* CCCNCC(=O)O[C@]1(CC)C(=O)OCc2c1cc1n(c2=O)Cc2cc3ccccc3nc2-1 | 8.33 µM
* Cc1nc(N2N=C(c3ccc(Cl)cc3)CCC2=O)sc1[N+](=O)[O-] | > 100 µM
* O=C(NNC1=NCCCCN1)Nc1ccc(Cl)cc1 | > 100 µM
* O=C(O)C(C(=O)O)P(=S)(S)c1ccccc1 (stereo unspecified) | > 100 µM
* CC1(C)C2CC(O)C1CCC2=O (stereo unspecified) | > 100 µM
* COc1ccc(Sc2nc3cc(N)cc(N)c3nc2-c2ccccc2)cc1 | > 100 µM
* NNC(=O)CCSc1ccccc1 | > 100 µM
* COC(=O)c1ccccc1N1C(=O)Cc2ccccc2C1=O | > 100 µM
* NC(=O)c1ncn(C2OC(CO)C(O)C2O)c1NC=O (stereo unspecified) | > 100 µM
* O=C(c1nc2ccccc2[nH]c1=O)C(O)c1ccco1 (stereo unspecified) | > 100 µM
* O=C(Nc1cccc(C(F)(F)F)c1)C(=O)C1NC(=S)NC1=O (stereo unspecified) | > 100 µM

====

Test system: HCT-116 colon
Test: NCI tumour cell line growth inhibition, 48 h; in the data active means GI50 below about 0.43 µM; inactive means the rest
Possible outcomes: True = active, False = inactive

• C[C@]12CC[C@@H]3c4cc(O)c(O)cc4CC[C@H]3[C@@H]1CC[C@@H]2O = False
• Cc1nc(-c2nc(-c3ccc(OC(F)(F)F)cc3)no2)nn1Cc1cccc(N2CCC(S(C)(=O)=O)CC2)c1 = True
• [Cl][Hg][c]1ccc(Cl)s1 = False
• Cc1cc(Nc2ncc3c(n2)N(C)C(=O)N(c2cc(NC(=O)c4cccc(C(F)(F)F)c4)ccc2C)C3)n(C)n1 = True
• O=[N+]([O-])c1ccc(C2CC(c3ccccc3)=Nc3ccccc3S2)cc1 (stereo unspecified) = False
• C=C1C(=O)O[C@H]2C[C@@H]1CC/C(C)=C/CC/C(C)=C/CC[C@@]2(C)O = False

Reference source: PubChem BioAssay (NCI)
